# hERG current change (%, negative = inhibition) at 10uM per entry
Target: human ether-à-go-go-related gene (hERG) potassium channel (human)
Assay: primary screen, population patch clamp on CHO cells stably expressing hERG; higher = less effect of the substance
Out of some 310,000 compounds screened, about 14,000 (4.5%) showed an effect of 50% or more. The effect is printed as a negative number. This is one part of a sample in which strong results are shown more often than they occur.
State the answer as a number, implicitly in %.

Worked set:
- CC1CCN(C(=S)NCCc2ccccc2)CC1: -15.2
- Cc1ccc(CC(=O)Nc2ncc([N+](=O)[O-])s2)cc1: 32.5
- CC(C)Cc1nc(S(=O)(=O)c2ccc(Cl)cc2)c(N2CCOCC2)o1: -6.14
- CCOC(=O)c1ccccc1NC(=S)N1CCN(C2CCCCC2)CC1: -62.3
- O=C(OC1Cn2c(=O)ccc(=O)n2C1)c1ccc([N+](=O)[O-])cc1: -12.8

Could you now look at the following molecule, please?
[ask] Return the recorded hERG current change (%, negative = inhibition) at 10uM value; entry: COc1ccc(NC(=O)c2ccc(S(=O)(=O)N3CCOCC3)o2)cc1
[reply] 0.458

---

Biological target: human ether-à-go-go-related gene (hERG) potassium channel (human, UniProt Q12809);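 note: peak tail current of the secondary pulse compared with the same well before compound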
Sequence (Q12809 whole entry, looked up): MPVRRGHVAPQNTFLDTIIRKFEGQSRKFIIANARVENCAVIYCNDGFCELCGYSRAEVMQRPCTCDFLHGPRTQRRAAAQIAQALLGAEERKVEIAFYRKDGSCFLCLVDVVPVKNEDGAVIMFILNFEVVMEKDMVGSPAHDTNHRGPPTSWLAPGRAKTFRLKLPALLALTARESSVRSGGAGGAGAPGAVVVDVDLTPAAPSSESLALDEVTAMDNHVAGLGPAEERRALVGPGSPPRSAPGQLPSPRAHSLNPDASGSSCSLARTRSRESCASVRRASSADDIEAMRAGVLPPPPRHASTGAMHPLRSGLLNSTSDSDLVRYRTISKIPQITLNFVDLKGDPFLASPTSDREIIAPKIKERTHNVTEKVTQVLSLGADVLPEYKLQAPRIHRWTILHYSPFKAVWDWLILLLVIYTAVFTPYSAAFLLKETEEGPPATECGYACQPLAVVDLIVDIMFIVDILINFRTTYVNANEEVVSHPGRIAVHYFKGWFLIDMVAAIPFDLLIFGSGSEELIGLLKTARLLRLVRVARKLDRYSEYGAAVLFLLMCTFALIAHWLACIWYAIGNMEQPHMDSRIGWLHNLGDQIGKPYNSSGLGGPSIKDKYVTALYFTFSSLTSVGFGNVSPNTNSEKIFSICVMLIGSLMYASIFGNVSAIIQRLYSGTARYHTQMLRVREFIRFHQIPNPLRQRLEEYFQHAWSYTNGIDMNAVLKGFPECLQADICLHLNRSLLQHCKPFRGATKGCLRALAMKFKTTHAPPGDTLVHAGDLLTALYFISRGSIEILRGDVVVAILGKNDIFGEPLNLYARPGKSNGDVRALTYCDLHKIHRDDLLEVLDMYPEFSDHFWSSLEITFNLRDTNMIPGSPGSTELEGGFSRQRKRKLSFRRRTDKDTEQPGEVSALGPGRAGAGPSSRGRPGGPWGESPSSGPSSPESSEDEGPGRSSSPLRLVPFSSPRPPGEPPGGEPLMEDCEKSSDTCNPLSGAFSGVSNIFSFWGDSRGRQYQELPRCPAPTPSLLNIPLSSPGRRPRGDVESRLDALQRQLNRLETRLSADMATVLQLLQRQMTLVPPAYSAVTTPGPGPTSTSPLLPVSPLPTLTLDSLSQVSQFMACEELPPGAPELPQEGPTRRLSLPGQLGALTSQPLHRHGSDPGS
Test: primary screen, population patch clamp on CHO cells stably expressing hERG; higher = less effect of the substance
Out of some 310,000 compounds screened, about 14,000 (4.5%) showed an effect of 50% or more. Effects have a minus sign here. The sample holds strong results, similar compounds and a random draw of the others, so the mix is not that of the screen.
reported-metric: hERG current change (%, negative = inhibition) at 10uM (%)
State the answer as a number, implicitly in %.

* CCN(CC)S(=O)(=O)c1ccc(N2CCOCC2)c(NC(=S)NC(=O)c2ccco2)c1 | -66.5
* CCN(CC)S(=O)(=O)c1ccc(N2CCOCC2)c(NC(=O)c2ccccc2)c1 | -25.6
* O=C(Nc1ccc(Cl)cc1)Nc1cc(S(=O)(=O)N2CCOCC2)ccc1N1CCCC1 | -54.5
* CCN(CC)S(=O)(=O)c1ccc(N2CCOCC2)c(NC(=O)c2ccc(NC(C)=O)cc2)c1 | -0.15
* O=C(N/N=C/c1cccnc1)c1ccc(NC(=O)c2ccc(F)cc2)cc1 | 8.2

[ask] Return the recorded hERG current change (%, negative = inhibition) at 10uM value; entry: COc1ccc(CNC(=O)c2nn(C)c3c2CS(=O)(=O)c2ccccc2-3)cc1
[reply] -24.5

---

Biological target: human ether-à-go-go-related gene (hERG) potassium channel (human, UniProt Q12809);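 note: peak tail current of the secondary pulse compared with the same well before compound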
Assay: primary screen, population patch clamp on CHO cells stably expressing hERG; higher = less effect of the substance
Hit rate of the full screen: of about 310,000 compounds, about 14,000 (4.5%) showed an effect of 50% or more. Effects have a minus sign here. The list comes from a sample in which strong results are over-represented; it also holds close analogues and randomly drawn compounds.
reported-metric: hERG current change (%, negative = inhibition) at 10uM (%)
State the answer as a number, implicitly in %.

[ask] Return the recorded hERG current change (%, negative = inhibition) at 10uM value; entry: CC1=CC=CC2=N/C(=N\S(=O)(=O)c3ccc(F)cc3F)c3ccccc3CN12
[reply] -20.3

---

Target: human ether-à-go-go-related gene (hERG) potassium channel (human);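 note: peak tail current of the secondary pulse compared with the same well before compound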
Test: primary screen, population patch clamp on CHO cells stably expressing hERG; higher = less effect of the substance
Out of some 310,000 compounds screened, about 14,000 (4.5%) showed an effect of 50% or more. Effects have a minus sign here. For the sample, strong results were picked, then their nearest neighbours and some compounds at random.
# hERG current change (%, negative = inhibition) at 10uM per entry
Please format your answer as a value with the unit trailing.

- O=C1CC2(CCN(C(=O)COc3ccc(Cl)cc3)CC2)Oc2ccccc21: -85.8%
- CCCC1=Nc2cc(C(=O)NCCN3CCOCC3)ccc2Sc2ccc(C)cc21: -34.3%
- Cn1c(C(=O)NCCCN2CCCCC2)cc2sccc21: -49%
- O=C(Nc1ccccc1)N(CCCN1CCOCC1)Cc1cccs1: -40.1%
- O=C(Nc1ccc(Cl)cc1)N(CCCN1CCOCC1)Cc1cccs1: -70.7%
- CCC1=Nc2cc(C(=O)NCCN3CCCC3)ccc2Sc2ccccc21: -52.1%
- Cc1c(Br)c([N+](=O)[O-])nn1CC(=O)NCc1ccccc1: -2.99%
- Cc1ccc(NC(=O)N(CCCN2CCOCC2)Cc2cccnc2)cc1C: -10.8%

[ask] Return the recorded hERG current change (%, negative = inhibition) at 10uM value; entry: COc1ccc(N2CCN(CCCNC(=O)c3cc4sccc4n3C)CC2)cc1
[reply] -70.7%

[ask] Return the recorded hERG current change (%, negative = inhibition) at 10uM value; entry: CN1CCC(N(C)c2nc(-c3ccccc3)nc3ccccc23)CC1
[reply] -70.4%

[ask] Return the recorded hERG current change (%, negative = inhibition) at 10uM value; entry: CC(Oc1ccccc1)C(=O)N1CCN(c2ccc(N3CCOCC3)nn2)CC1 (centres unmarked)
[reply] -3.79%

[ask] Return the recorded hERG current change (%, negative = inhibition) at 10uM value; entry: c1ccc(-c2nc(C3CCCCC3)c3ccccc3n2)cc1
[reply] 10.7%

[ask] Return the recorded hERG current change (%, negative = inhibition) at 10uM value; entry: COCCNC(=O)/C(C#N)=C/c1cc(C)n(C2CCCCC2)c1C
[reply] -0.875%

[ask] Return the recorded hERG current change (%, negative = inhibition) at 10uM value; entry: COc1cccc(CCNC(=O)CC2C(=O)NCCN2CC(C)(C)C)c1 (centres unmarked)
[reply] 15.8%

[ask] Return the recorded hERG current change (%, negative = inhibition) at 10uM value; entry: CCOCCn1c(C(C)O)nc2ccccc21 (centres unmarked)
[reply] 11.7%

[ask] Return the recorded hERG current change (%, negative = inhibition) at 10uM value; entry: Cc1ccc(C)c(NS(=O)(=O)c2ccc(NC(=O)CSc3ccc(Cl)cc3)cc2)c1
[reply] 17.8%

[ask] Return the recorded hERG current change (%, negative = inhibition) at 10uM value; entry: O=C(O)c1ccc(Nc2nc(-c3cccnc3)cs2)cc1O
[reply] 9.69%

[ask] Return the recorded hERG current change (%, negative = inhibition) at 10uM value; entry: CSc1snnc1-c1ccccc1
[reply] 25.6%

[ask] Return the recorded hERG current change (%, negative = inhibition) at 10uM value; entry: CC(=O)c1ccc(NC(=O)CSc2nnc3ccc(-c4ccccn4)nn23)cc1
[reply] -10.5%

[ask] Return the recorded hERG current change (%, negative = inhibition) at 10uM value; entry: COc1ccc(-c2n[nH]c(=S)n2-c2ccc(C)cc2C)cc1
[reply] 19.5%

[ask] Return the recorded hERG current change (%, negative = inhibition) at 10uM value; entry: Cc1ccc(S(=O)(=O)NCCC(=O)OCC(=O)Nc2ccccc2Cl)cc1
[reply] -10.5%

[ask] Return the recorded hERG current change (%, negative = inhibition) at 10uM value; entry: O=C(CCNC(=O)c1ccccc1Cl)Nc1nc(-c2ccccc2Cl)cs1
[reply] -7.92%

[ask] Return the recorded hERG current change (%, negative = inhibition) at 10uM value; entry: Cc1cc(C)n2[nH]c(=O)c(N=Nc3cccc(C(F)(F)F)c3)c2n1
[reply] -23.8%

[ask] Return the recorded hERG current change (%, negative = inhibition) at 10uM value; entry: COc1ccc(NC(=O)CSc2ccc3nnc(-c4ccccn4)n3n2)cc1OC
[reply] -18.1%

[ask] Return the recorded hERG current change (%, negative = inhibition) at 10uM value; entry: Cc1c(Cl)c([N+](=O)[O-])nn1CC(=O)N1CCN(Cc2ccccc2)CC1
[reply] -71%

[ask] Return the recorded hERG current change (%, negative = inhibition) at 10uM value; entry: CCCOc1ccc(N2CC(C(=O)Nc3ccc(N4CCOCC4)cc3)CC2=O)cc1 (centres unmarked)
[reply] 36%

[ask] Return the recorded hERG current change (%, negative = inhibition) at 10uM value; entry: CCC1=Nc2cc(C(=O)NCCN3CCOCC3)ccc2Sc2ccc(C)cc21
[reply] -82.3%

[ask] Return the recorded hERG current change (%, negative = inhibition) at 10uM value; entry: CC(=O)N1CCC2(CC1)CC(=O)c1cc(OCC(=O)NCc3ccc(C)cc3)ccc1O2
[reply] -21.3%

[ask] Return the recorded hERG current change (%, negative = inhibition) at 10uM value; entry: CCC1=Nc2cc(C(=O)NCCN3CCCC3)ccc2Sc2ccc(C)cc21
[reply] -29%

---

Biological target: human ether-à-go-go-related gene (hERG) potassium channel (human, UniProt Q12809);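 note: peak tail current of the secondary pulse compared with the same well before compound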
Assay: primary screen, population patch clamp on CHO cells stably expressing hERG; higher = less effect of the substance
The campaign covered roughly 310,000 compounds. About 14,000 (4.5%) showed an effect of 50% or more. The effect is printed as a negative number. This is one part of a sample in which strong results are shown more often than they occur.
reported-metric: hERG current change (%, negative = inhibition) at 10uM (%)
State the answer as a number, implicitly in %.

Worked set:
• CCN(CC)c1cccc(OCC(=O)N(C)CCC#N)c1 = 18.9
• COc1ccc(C2/C=C\CN(C(=O)C3CCCCC3)CC(=O)N2Cc2ccc(F)cc2)cc1 (stereo not shown) = -10.1
• Cl.O=C(C1CCN(S(=O)(=O)c2cccs2)CC1)N1CCN(Cc2ccccc2)CC1 = 3.79

[ask] Return the recorded hERG current change (%, negative = inhibition) at 10uM value; entry: CS(=O)CSc1nc2c(cc1C#N)CCCC2 (stereo not shown)
[reply] -25

[ask] Return the recorded hERG current change (%, negative = inhibition) at 10uM value; entry: Cc1c(CNCCCc2ccccc2)c(C(=O)O)c(C)n1Cc1ccccc1
[reply] 4.03

[ask] Return the recorded hERG current change (%, negative = inhibition) at 10uM value; entry: COc1ccc(-c2noc(CN(C)C(=O)CCN3C(=O)[C@H]4CC=CC[C@H]4C3=O)n2)cc1
[reply] -2

[ask] Return the recorded hERG current change (%, negative = inhibition) at 10uM value; entry: CC(=O)c1cc(C(=O)N2CCCC(C(=O)c3ccc(Cl)cc3)C2)cs1 (stereo not shown)
[reply] -31.9

[ask] Return the recorded hERG current change (%, negative = inhibition) at 10uM value; entry: Cc1ccc(NC(=O)CCC(=O)Nc2ccc(C)cc2)cc1
[reply] 12.2

[ask] Return the recorded hERG current change (%, negative = inhibition) at 10uM value; entry: Cc1c(CNCCC2=CCCCC2)c(C(=O)O)c(C)n1Cc1ccccc1
[reply] -13.3

[ask] Return the recorded hERG current change (%, negative = inhibition) at 10uM value; entry: C=CCn1c(SCCN2CCCCC2)nc2c1c(=O)[nH]c(=O)n2C
[reply] -47.3

[ask] Return the recorded hERG current change (%, negative = inhibition) at 10uM value; entry: O=C(CSc1nnc(Cc2cc(=O)[nH]c(=O)[nH]2)n1-c1ccc(Cl)cc1)NC1CCCC1
[reply] 10.7

[ask] Return the recorded hERG current change (%, negative = inhibition) at 10uM value; entry: COCC(=O)Nc1ccc(S(=O)(=O)Nc2ccccn2)cc1
[reply] 17.8

[ask] Return the recorded hERG current change (%, negative = inhibition) at 10uM value; entry: CCn1c(C(C)NC(=O)Cc2ccccc2)nc2ccccc21 (stereo not shown)
[reply] -2.26
